# MEASURED_TARGET: NFS1 (Homo sapiens, UniProt Q9Y697, C381S)
# Sequence (Q9HD34 whole entry, other chains not shown): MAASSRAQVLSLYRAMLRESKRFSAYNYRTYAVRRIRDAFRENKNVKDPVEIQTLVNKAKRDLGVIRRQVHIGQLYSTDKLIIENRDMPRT
# Sequence (Q9Y697 56-457 C381S, other chains not shown): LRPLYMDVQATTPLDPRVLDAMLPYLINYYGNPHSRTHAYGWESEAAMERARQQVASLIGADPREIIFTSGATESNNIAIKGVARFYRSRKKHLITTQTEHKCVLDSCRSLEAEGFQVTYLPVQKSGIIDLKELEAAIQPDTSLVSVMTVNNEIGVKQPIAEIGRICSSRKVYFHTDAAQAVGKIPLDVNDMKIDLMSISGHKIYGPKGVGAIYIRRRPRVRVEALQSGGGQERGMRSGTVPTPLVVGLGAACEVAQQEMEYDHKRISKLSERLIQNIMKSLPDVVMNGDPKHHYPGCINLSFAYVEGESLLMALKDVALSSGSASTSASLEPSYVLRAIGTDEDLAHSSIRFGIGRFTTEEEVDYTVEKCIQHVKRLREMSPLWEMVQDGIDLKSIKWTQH
# PROTOCOL_DESCRIPTION: microscale thermophoresis
pKd: −log10 of the molar value.
MEASURED_METRIC: pKd

>>> df
                 smi                           measured_target  obs_value
0  N[C@@H](CS)C(=O)O  NFS1 (Homo sapiens, UniProt Q9Y697, C381S)       5.67
1   N[C@H](CS)C(=O)O  NFS1 (Homo sapiens, UniProt Q9Y697, C381S)       4.59
